Experiment: total protein half-life in vivo (active degradation + dilution); higher = more stable protein
Details: E. coli NCM3722 delta-clpP; growth: N-lim chemostat; doubling time 6 h

- Sequence entry: "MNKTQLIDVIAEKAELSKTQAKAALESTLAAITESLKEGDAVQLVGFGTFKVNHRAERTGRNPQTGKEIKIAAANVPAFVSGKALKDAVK [P0ACF0]"
  total protein half-life in vivo: "6.29 h"
- Sequence entry: "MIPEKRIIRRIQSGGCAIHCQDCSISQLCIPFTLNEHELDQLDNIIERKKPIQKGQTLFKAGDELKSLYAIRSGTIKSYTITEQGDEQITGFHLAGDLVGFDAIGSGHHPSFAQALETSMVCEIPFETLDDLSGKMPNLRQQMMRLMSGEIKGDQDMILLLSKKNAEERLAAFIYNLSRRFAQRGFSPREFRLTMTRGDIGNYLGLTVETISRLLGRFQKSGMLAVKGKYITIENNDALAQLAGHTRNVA [P0A9E5]"
  total protein half-life in vivo: "2.99 h"
- Sequence entry: "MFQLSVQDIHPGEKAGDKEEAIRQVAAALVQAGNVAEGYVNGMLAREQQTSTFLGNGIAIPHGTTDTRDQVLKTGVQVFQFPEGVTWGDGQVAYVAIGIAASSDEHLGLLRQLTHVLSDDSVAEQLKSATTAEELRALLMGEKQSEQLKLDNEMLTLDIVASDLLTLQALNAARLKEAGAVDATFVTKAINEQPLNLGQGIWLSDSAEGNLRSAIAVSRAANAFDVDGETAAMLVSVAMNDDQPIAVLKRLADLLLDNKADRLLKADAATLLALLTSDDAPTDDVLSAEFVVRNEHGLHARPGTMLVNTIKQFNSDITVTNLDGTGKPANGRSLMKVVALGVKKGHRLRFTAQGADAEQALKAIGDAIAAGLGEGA"
  total protein half-life in vivo: "5.64 h"
- Sequence entry: "MEPLREIRNRLLNGWQLSKMHTFEVAARHQSFALAAEELSLSPSAVSHRINQLEEELGIQLFVRSHRKVELTHEGKRVYWALKSSLDTLNQEILDIKNQELSGTLTLYSRPSIAQCWLVPALGDFTRRYPSISLTVLTGNDNVNLQRAGIDLAIYFDDAPSAQLTHHFLMDEEILPVCSPEYAQRHALTNTVINLCHCTLLHDRQAWSNDSGTDEWHSWAQHYAVNLPTSSGIGFDRSDLAVIAAMNHIGVAMGRKRLVQKRLASGELVAPFGDMTVKCHQHYYITTLPGRQWPKIEAFIIWLREQVKTTS"
  total protein half-life in vivo: "5.73 h"
- Sequence entry: "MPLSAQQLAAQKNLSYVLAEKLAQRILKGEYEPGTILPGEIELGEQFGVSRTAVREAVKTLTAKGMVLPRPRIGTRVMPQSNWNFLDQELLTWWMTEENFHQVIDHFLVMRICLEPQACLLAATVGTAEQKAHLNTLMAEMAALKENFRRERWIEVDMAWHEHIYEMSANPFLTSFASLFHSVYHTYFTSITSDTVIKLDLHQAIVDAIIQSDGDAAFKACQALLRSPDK"
  total protein half-life in vivo: "6.01 h"
- Sequence entry: "MKYRIALAVSLFALSAGSYATTLCQEKEQNILKEISYAEKHQNQNRIDGLNKALSEVRANCSDSQLRADHQKKIAKQKDEVAERQQDLAEAKQKGDADKIAKRERKLAEAQEELKKLEARDY"
  total protein half-life in vivo: "3.7 h"
- Sequence entry: "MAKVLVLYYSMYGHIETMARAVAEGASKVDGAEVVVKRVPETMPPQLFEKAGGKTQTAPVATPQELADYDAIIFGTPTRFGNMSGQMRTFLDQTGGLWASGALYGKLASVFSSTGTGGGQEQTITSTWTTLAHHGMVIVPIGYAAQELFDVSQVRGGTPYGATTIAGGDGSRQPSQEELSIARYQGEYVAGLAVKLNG [P0A8G6]"
  total protein half-life in vivo: "5.53 h"
